target: UniProt P09960; experiment: Inhibitory activity against recombinant human Leukotriene A4 hydrolase
Sequence (P09960 whole entry): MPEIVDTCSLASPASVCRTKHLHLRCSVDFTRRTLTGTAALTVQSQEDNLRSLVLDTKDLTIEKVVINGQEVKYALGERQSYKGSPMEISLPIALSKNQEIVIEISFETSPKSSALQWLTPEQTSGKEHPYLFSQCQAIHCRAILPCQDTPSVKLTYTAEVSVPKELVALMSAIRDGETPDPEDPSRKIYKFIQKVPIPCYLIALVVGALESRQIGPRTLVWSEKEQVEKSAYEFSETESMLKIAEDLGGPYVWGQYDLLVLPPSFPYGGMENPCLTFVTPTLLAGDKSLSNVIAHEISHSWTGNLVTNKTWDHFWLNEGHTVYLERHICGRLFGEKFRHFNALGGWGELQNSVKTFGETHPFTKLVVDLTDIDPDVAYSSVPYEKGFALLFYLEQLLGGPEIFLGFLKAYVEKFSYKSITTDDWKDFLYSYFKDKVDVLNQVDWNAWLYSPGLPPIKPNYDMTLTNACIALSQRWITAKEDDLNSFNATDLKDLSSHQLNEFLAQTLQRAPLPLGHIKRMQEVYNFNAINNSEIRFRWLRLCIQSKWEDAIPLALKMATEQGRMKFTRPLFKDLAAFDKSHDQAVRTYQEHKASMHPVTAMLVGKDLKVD
pIC50: −log10 of the molar value.
# key: entry, value: pIC50
endpoint: pIC50

> print(dat)
                                  mol.smiles  endpoint  value.relation.sign  data.value
 1  O=C(C[C@@H](Cc1ccccc1)C(=O)N1CCCC[C@H]1C(=O)O)NO     pIC50                    =        8.10
 2  O=C(C[C@@H](Cc1ccccc1)C(=O)N[C@@H](Cc1c[nH]c2ccccc12)C(=O)O)NO     pIC50                    =        8.00
 3  C[C@H](NC(=O)[C@@H](CC(=O)O)Cc1ccccc1)C(=O)O     pIC50                    =        6.52
 4  O=C(C[C@@H](Cc1ccccc1)C(=O)N[C@@H](CC1CCCCC1)C(=O)O)NO     pIC50                    =        8.00
 5  O=C(C[C@@H](Cc1ccccc1)C(=O)N1CCC[C@H]1C(=O)O)NO     pIC50                    =        7.52
 6  CSCC[C@@H](NC(=O)[C@@H](CC(=O)NO)Cc1ccccc1)C(=O)O     pIC50                    =        7.92
 7  C[C@H](NC(=O)[C@@H](CC(=O)NO)CC1CCCCC1)C(=O)O     pIC50                    =        8.30
 8  C[C@@H](C(=O)O)N(C)C(=O)[C@@H](CC(=O)NO)Cc1ccccc1     pIC50                    =        8.52
 9  O=C(C[C@@H](Cc1ccccc1)C(=O)N1CCCC[C@@H]1C(=O)O)NO     pIC50                    =        5.74
10  C[C@H](NC(=O)[C@@H](CCS)CC1CCCCC1)C(=O)O     pIC50                    <        5.52
